TESTED_SYSTEM: human MMP-12 (human, UniProt P39900 106-470, limits assumed)
Sequence (P39900 106-470 limits assumed): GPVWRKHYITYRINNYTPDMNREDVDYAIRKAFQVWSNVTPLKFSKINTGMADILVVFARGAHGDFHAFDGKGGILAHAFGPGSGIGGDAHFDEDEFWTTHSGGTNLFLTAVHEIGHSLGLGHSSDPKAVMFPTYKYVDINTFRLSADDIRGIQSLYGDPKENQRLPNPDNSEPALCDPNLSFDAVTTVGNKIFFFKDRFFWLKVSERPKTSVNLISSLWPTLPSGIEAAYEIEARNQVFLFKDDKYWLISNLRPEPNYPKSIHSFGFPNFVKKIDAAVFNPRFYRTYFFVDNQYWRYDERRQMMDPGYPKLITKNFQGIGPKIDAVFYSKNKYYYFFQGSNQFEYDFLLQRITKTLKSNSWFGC
ASSAY_SUMMARY: cell-based or functional assay
Entries annotated with measured IC50 (nM), large scale purified Fabs
MEASURE_NAME: IC50 (nM), large scale purified Fabs

>>> test_result("539A-M0016-H05 Fab (Fab, V domains shown) VH: EVQLLESGGGLVQPGGSLRLSCAASGFTFSWYAMSWVRQAPGKGLEWVSRIVPSGGDTGYADSVKGRFTISRDNSKNTLYLQMNSLRAEDTAVYYCATFRGIMYGDYGSSYWYFDLWGRGTLVTVSS VL: DIQMTQSPATLSLSPGERATLSCRASQSVSSYLAWYQQKPGQAPRLLIYDASNRATGIPARFSGSGSGTDFTLTISSLEPEDFAVYYCQQRSNWPLTFGGGTKVEIK")
56.6
>>> test_result("539A-M0013-H06 Fab (Fab, V domains shown) VH: EVQLLESGGGLVQPGGSLRLSCAASGFTFSAYEMDWVRQAPGKGLEWVSGISSSGGPTYYADSVKGRFTISRDNSKNTLYLQMNSLRAEDTAVYYCARVGGWELLQDYYYYMDVWGKGTTVTVSS VL: DIQMTQSPATLSLSPGERATLSCRASHSVDNLAWYQQQPGQAPRLLIYDVSYRATGIPARFSGSGSGTDFTLTISSLEPEDFAVYYCQQRNNWPLSLTFGGGTKVEIK")
11.9
>>> test_result("539A-M0014-C09 Fab (Fab, V domains shown) VH: EVQLLESGGGLVQPGGSLRLSCAASGFTFSDYSMHWVRQAPGKGLEWVSGIGPSGGPTFYADSVKGRFTISRDNSKNTLYLQMNSLRAEDTAVYYCARGEYSSSDYYYYYGMDVWGQGTTVTVSS VL: DIQMTQSPATLSLSPGERATLSCGASQNIDGYYLAWYQQKPGQAPSLLIYDASSRSTGVPDRFSGSGSGTDFTLTISRLEPEDFAVYYCQHYGNSLWTFGQGTKVEIK")
36.9
>>> test_result("539A-M0013-G12 Fab (Fab, V domains shown) VH: EVQLLESGGGLVQPGGSLRLSCAASGFTFSWYHMFWVRQAPGKGLEWVSGISSSGGYTHYADSVKGRFTISRDNSKNTLYLQMNSLRAEDTAVYYCATREGMLYDYVWGENYMDVWGKGTTVTVSS VL: DIQMTQSPSSLSASVGDRVTITCQASQDTYNRLHWYQQKPGKAPKLLIYDAVNLNRGVPSRFRGSGSGTNYILIITNLQPEDTATYYCQHSDDLSLAFGGGTKVEIK")
6.7
>>> test_result("539A-M0020-B01 Fab (Fab, V domains shown) VH: EVQLLESGGGLVQPGGSLRLSCAASGFTFSHYVMHWVRQAPGKGLEWVSYIGSSGGETRYADSVKGRFTISRDNSKNTLYLQMNSLRAEDTAVYYCARADYGDYDYYYYYGMDVWGQGTTVTVSS VL: QYELTQPPSVSVAPGQTATITCEGNNIASKSVHWYQQKPGQAPVLVVYDDRDRPSGISERISGSNSGNTPTLTIFRVEAGDEADYYCQVSDSATDHRVFGGGTKLTVL")
74.8

Sourced from patent US8114968
